Test: activity coefficient (dimensionless); of the first substance listed, at infinite dilution; xn = mol fraction of the nth substance listed
Conditions: 348.01 K; 101 kPa; Liquid; Chromatography; x1 = 0

{"columns": ["COMPOUND", "activity coefficient"],
 "data": [
  ["CC(C)O [propan-2-ol] + CCCCCCCCCCCCCCCC(=O)O", 1.41],
  ["ClCCCl [1,2-dichloroethane] + CCCCCCCCCCCCCCCC(=O)O", 1.19],
  ["CC(C)CC(C)(C)C [2,2,4-trimethylpentane] + CCCCCCCCCCCCCCCC(=O)O", 1.46]
]}

---

List of activity coefficient values.
Test: activity coefficient (dimensionless); of the first substance listed, at infinite dilution; xn = mol fraction of the nth substance listed
Details: 353.25 K; 101 kPa; Liquid; Chromatography; x1 = 0

{"columns": ["COMPOUND", "activity coefficient"],
 "data": [
  ["CC(C)O [propan-2-ol] + CCCCCCCCCCCC(=O)O", 1.22],
  ["CCO [ethanol] + CCCCCCCCCCCC(=O)O", 1.56],
  ["CCOC(C)=O [ethyl acetate] + CCCCCCCCCCCCCC(=O)O", 1.13],
  ["CCO [ethanol] + CCCCCCCCCCCCCC(=O)O", 1.53],
  ["CCCCO [butan-1-ol] + CCCCCCCCCCCC(=O)O", 1.34],
  ["CC(C)CC(C)(C)C [2,2,4-trimethylpentane] + CCCCCCCCCC(=O)O", 1.86],
  ["Clc1ccccc1 [chlorobenzene] + CCCCCCCCCC(=O)O", 1.17],
  ["CCOC(C)=O [ethyl acetate] + CCCCCCCCCC(=O)O", 1.21],
  ["CCC(C)O (stereo not drawn) [butan-2-ol] + CCCCCCCCCCCCCC(=O)O", 1.05],
  ["CCCCO [butan-1-ol] + CCCCCCCCCC(=O)O", 1.34],
  ["CC(C)=O [acetone] + CCCCCCCCCC(=O)O", 1.34],
  ["CC(C)O [propan-2-ol] + CCCCCCCCCC(=O)O", 1.2],
  ["ClCCCl [1,2-dichloroethane] + CCCCCCCCCCCC(=O)O", 1.23],
  ["C1CCCCC1 [cyclohexane] + CCCCCCCCCCCC(=O)O", 1.2],
  ["ClC(Cl)Cl [trichloromethane] + CCCCCCCCCCCCCC(=O)O", 0.746],
  ["ClC=C(Cl)Cl [trichloroethene] + CCCCCCCCCCCCCC(=O)O", 0.842],
  ["COc1ccccc1 [anisole] + CCCCCCCCCCCCCC(=O)O", 1.24],
  ["CC(C)O [propan-2-ol] + CCCCCCCCCCCCCC(=O)O", 1.19],
  ["CCCO [propan-1-ol] + CCCCCCCCCCCC(=O)O", 1.43],
  ["CCCCO [butan-1-ol] + CCCCCCCCCCCCCC(=O)O", 1.22],
  ["CC(C)=O [acetone] + CCCCCCCCCCCCCC(=O)O", 1.3],
  ["ClC=C(Cl)Cl [trichloroethene] + CCCCCCCCCCCC(=O)O", 0.933],
  ["COc1ccccc1 [anisole] + CCCCCCCCCC(=O)O", 1.43]
]}
